Test system: HCT116/VM46
Assay: Cytotoxicity against HCT116/VM46 cell line (multi-drug resistant variant)
Format: cell-based, human
Conditions: Homo sapiens, HCT-116/VM46, read-out: Cell Line (IC50, nM) HCT116/ VM46
test_readout: IC50 (nM)

{"columns": ["molecule", "test_readout", "val"],
 "data": [
  ["CC(/C=C/[C@H]1OC(C)(C)C[C@@]2(CO2)[C@@H]1O)=C\\C[C@@H]1O[C@H](C)[C@H](NC(=O)/C=C\\[C@H](C)OC(=O)N2CCOCC2)C[C@@H]1C [Meayamycin B (38a), Meayamycin B]", "IC50", 0.55]
]}
